B1: DCTD (parent)
chain: VKGCSMYVALFPCNECAKLIIQAG

- Variants of: B1
- ASSAY_EXPLANATION: protein stability index of a GFP-peptide fusion (GPS, HEK-293T) (PSI 1-6); higher = more stable;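 also: lentivirally expressed fusions sorted by FACS into six bins by GFP to DsRed ratio, PSI derived from sequencing read proportions per bin multiplied by bin number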
- CONDITION: c terminus: a fixed tail appended
READOUT_KIND: protein stability index

Some entries whose results are on file:
1) C13P = 1.7
2) S5N = 2.91
3) C4F = 2.92
4) K2V = 4.19
5) M6S = 2.46
6) K18W = 1

Hi, could you look up protein stability index for each item in my list?
1. A17H
2. L10A
3. M6I
4. F11D
5. Y7T
6. G24K
7. V1G
8. K2T

// result
1. 3.41
2. 2.48
3. 3.81
4. 4.47
5. 1.91
6. 1.76
7. 3.72
8. 3.52

Would you be so kind as to report protein stability index for each listed record?
1. C16N
2. N14P
3. V1T
4. Y7C
5. Y7D
6. P12G

// result
1: 5.28; 2: 2.04; 3: 3.12; 4: 2.84; 5: 1.68; 6: 2.57

For each listed entry, give its protein stability index.
1. F11S
2. S5F

// result
1: 2.83; 2: 2.58
